measurementProtocol: physchem
recordedConditions: buffer, pH 7.4
testReadout: solubility (µM)
Answer format: numeric, µM implied, no suffix.

Task: Entry `Cc1ccc(NC(=O)CCCCN2CCN(C)CC2)cc1Nc1nccc(-c2cccnc2)n1` has what solubility?
Result: 356

Task: Entry O=C(C1[C@@H]2CC[C@@]1(c1ccccc1)C2)N1CCCCC1 (stereo partly specified) has what solubility?
Result: 492

Task: Looking for the measured solubility of `Cc1ccc(NC(=O)[C@H]2C[C@H](CN3CCN(C)CC3)C2)cc1Nc1nccc(-c2cccnc2)n1` , can you help?
Result: 2000

Task: Find the recorded solubility belonging to `Cc1ccc(NC(=O)C23CC(CN4CCN(C)CC4)(C2)C3)cc1Nc1nccc(-c2cccnc2)n1` and report it.
Result: 2680

Task: Entry `Cc1ccc(NC(=O)[C@@H]2CC[C@H](CN3CCN(C)CC3)C2)cc1Nc1nccc(-c2cccnc2)n1` : reported solubility = ?
Result: 885

Next:
Task: Given `Cc1ccc(NC(=O)[C@H]2CC[C@H](CN3CCN(C)CC3)CC2)cc1Nc1nccc(-c2cccnc2)n1` , state its recorded solubility.
Result: 56

Task: Entry `Cc1ccc(NC(=O)[C@@H]2C[C@H]2CN2CCN(C)CC2)cc1Nc1nccc(-c2cccnc2)n1` : reported solubility = ?
Result: 3720

Task: // lookup solubility for `O=C(c1ccccc1-c1ccccc1)N1CCCCC1`
Result: 397

The measured values listed here are drawn from ChEMBL document CHEMBL5244278.
